EC50, GIP Receptor cAMP induction overview
Target: T1, human GIP receptor (human, UniProt P48546 22-466)
T1 sequence (looked up): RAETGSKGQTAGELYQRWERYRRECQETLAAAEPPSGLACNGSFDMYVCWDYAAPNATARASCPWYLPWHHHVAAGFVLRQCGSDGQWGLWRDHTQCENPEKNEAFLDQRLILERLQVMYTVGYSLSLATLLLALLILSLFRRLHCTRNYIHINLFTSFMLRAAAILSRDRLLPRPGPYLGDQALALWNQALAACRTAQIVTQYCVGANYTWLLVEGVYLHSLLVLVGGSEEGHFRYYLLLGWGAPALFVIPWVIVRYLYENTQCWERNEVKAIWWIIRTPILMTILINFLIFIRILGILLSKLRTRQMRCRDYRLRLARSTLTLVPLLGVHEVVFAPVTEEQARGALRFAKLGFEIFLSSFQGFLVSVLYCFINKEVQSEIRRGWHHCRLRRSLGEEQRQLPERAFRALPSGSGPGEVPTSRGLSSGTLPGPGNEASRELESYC
Experiment: cell-based or functional assay
Where no end group is shown, it is not given here. [ ]: non-standard residue; d: D form. Phe(4-NO2) = N[C@@H](Cc1ccc([N+](=O)[O-])cc1)C(=O)O; Met(O) = CS(=O)CC[C@H](N)C(=O)O; Nle = CCCC[C@H](N)C(=O)O; Aib = CC(C)(N)C(=O)O
The reply should be a number in nM, with the unit left off.

Observe how each entry below is paired with its result.
binder: Y[Aib]EGTFTSDYSIAMEKIHQQDFVNWLLAQ-NH2 [Analog 002]
EC50, GIP Receptor cAMP induction [nM]: 11.1
//
binder: Y[Aib]EGTFTSDYSIY[Nle]EKEAQQDFVNWLLAQ-NH2 [Analog 020]
EC50, GIP Receptor cAMP induction [nM]: 0.27

Endpoint output: EC50, GIP Receptor cAMP induction of Y[Aib]EGTFTSDYSI[Phe(4-NO2)][Met(O)]EKIHQQDFVNWLLAQ-NH2 [Analog 005] . Value?
76.5
